experimentNotes: Quantitative High-Throughput drug screen in 47 multiple myeloma cell lines against the NCATS MIPE library collection: XG1_PLB cell viability assay (AID 1919866); further: nearly all actives have a fitted effect of over 35% in size
experimentalContext: CellTiter-Glo ATP, 48 h; series mostly up to 45.8 µM
Results filed as inconclusive are left out. Calls of active or inactive are those of the source. The call rests on the fitted dose curve; in most records, active means well fitted cell-killing curve with a large enough effect; inconclusive means small, poorly fitted or top-dose-only effect, or effect the other way; inactive means no such curve, though single readings can be large or run the other way.
Outcome (select one): true (1) = active, false (0) = inactive

The examples below pair each entry with its known result.
O=c1cc(CN2CCOCC2)occ1OCCCCCSc1ccnc2cc(C(F)(F)F)ccc12 ... true (1)
CC(C)n1cnc2c(NCCCCCCNC(=O)OC(C)(C)C)nc(NCCO)nc21 ... true (1)
CN(C)Cc1cccc(N=C(c2ccccc2)c2c(O)[nH]c3cc(C(=O)N(C)C)ccc23)c1 ... true (1)
C[C@]12CC[C@@H]3c4ccc(O)cc4C[C@@H](CCCCCCCCCS(=O)CCCC(F)(F)C(F)(F)F)[C@H]3[C@H]1CC[C@H]2O (stereo partly drawn) ... false (0)
CN1C[C@H]2c3ccccc3Oc3ccc(Cl)cc3[C@@H]2C1 ... false (0)

Inquiry: Given `CO[C@H]1C=CC=C(C)C(=O)NC2=CC(=O)C(NCCN(C)C)=C(C[C@@H](C)C[C@H](OC)[C@@H](O)[C@@H](C)C=C(C)[C@@H]1OC(N)=O)C2=O` , state the outcome it received in this test.
Reply text: true (1)

Inquiry: Given `O=c1c(-c2ccc(O)cc2)coc2cc(O[C@@H]3O[C@H](CO)[C@H](O)[C@H](O)[C@H]3O)ccc12` , state the outcome it received in this test.
Reply text: false (0)

Inquiry: Given `CC[C@H]1OC(=O)[C@H](C)C(=O)[C@H](C)[C@@H](O[C@H]2O[C@H](C)C[C@H](N(C)C)[C@@H]2O)[C@](C)(OC)C[C@@H](C)C(=O)[C@H](C)[C@H]2N(CCCCn3cnc(-c4cccnc4)c3)C(=O)O[C@]12C` , state the outcome it received in this test.
Reply text: false (0)

====

# parasite growth, % of control (lower = inhibition) per record follows
experimentNotes: qHTS profiling of the MIPE4 collection as inhibitors of Plasmodium falciparum (DD2) proliferation (Rep 2) (AID 743346)
experimentalContext: P. falciparum Dd2 in erythrocytes, SYBR Green DNA, 72 h; at 28.5 µM (top of the series) unless noted
Give the value, in units of %, as a plain number.

COc1cc(N2CCC(N3CCN(C)CC3)CC2)ccc1Nc1ncc(Cl)c(Nc2ccccc2S(=O)(=O)C(C)C)n1 ... 5.51
O=C(Nc1cc(Cl)cc2c1[nH]c1cnccc12)c1cccnc1 ... 10.7
CO[C@H]1C[C@@H]2CC[C@@H](C)[C@@](O)(O2)C(=O)C(=O)N2CCCC[C@@H]2C(=O)O[C@H]([C@@H](C)C[C@@H]2CC[C@H](O)[C@H](OC)C2)CC(=O)[C@H](C)C=C(C)[C@@H](O)[C@@H](OC)C(=O)[C@H](C)C[C@H](C)C=CC=CC=C1C ... 7.75
Cc1cccc(Nc2nc(-c3ccncc3)cs2)c1 ... 42.6
O=C(Nc1ccccc1-c1cn2c(CN3CCNCC3)csc2n1)c1cnc2ccccc2n1 ... 12.5
CCC(=O)NC[C@H](Cc1ccc(OCCc2nc(-c3ccccc3)oc2C)cc1)NC(C)=CC(=O)c1ccc(C(F)(F)F)cc1 ... 21.5
COc1ccc(-c2coc3cc(O)ccc3c2=O)cc1 ... 96.3
CCn1c(C(=O)N(C2CC2)C2CC2)cc2c3c(ncn3C)c(Nc3cc(C)n(C)n3)nc21 ... 23.5

Inquiry: So what does the record say about parasite growth, % of control (lower = inhibition) for `Cc1cc(OCCCc2c(C(=O)O)n(Cc3cccnc3)c3c(-c4c(COc5ccc(N6CCN([S+](C)(=O)[O-])CC6)cc5)nn(C)c4C)cccc23)cc(C)c1Cl` ?
Reply text: 16

Inquiry: So what does the record say about parasite growth, % of control (lower = inhibition) for COc1ccc(-c2oc3c(CC=C(C)C)c(OC4O[C@H](CO)[C@@H](O)[C@H](O)[C@@H]4O)cc(O)c3c(=O)c2OC2O[C@@H](C)[C@H](O)[C@@H](O)[C@@H]2O)cc1 (stereo partly specified) ?
Reply text: 36.2

Inquiry: So what does the record say about parasite growth, % of control (lower = inhibition) for Clc1ccc(COC(Cn2ccnc2)c2ccc(Cl)cc2Cl)cc1 (stereo unspecified) ?
Reply text: 9.72

Inquiry: So what does the record say about parasite growth, % of control (lower = inhibition) for C[N+]1(C)[C@@H]2CC(OC(=O)[C@H](CO)c3ccccc3)C[C@H]1[C@H]1O[C@@H]12 (stereo partly specified) ?
Reply text: 84.8

Inquiry: So what does the record say about parasite growth, % of control (lower = inhibition) for `CC(C)(C)Cn1c(N)nc2ccc(-c3[nH]c(C(C)(C)C)nc3-c3ccc(F)cc3)nc21` ?
Reply text: 16

Inquiry: So what does the record say about parasite growth, % of control (lower = inhibition) for `COc1ccc(-c2cc(=O)c3c(O)cc(O)cc3o2)cc1O` ?
Reply text: 43.3

Inquiry: So what does the record say about parasite growth, % of control (lower = inhibition) for `CC(C)(C)OC(=O)N[C@H]1CCCCCC=C[C@@H]2C[C@@]2(C(=O)NS(=O)(=O)C2CC2)NC(=O)[C@@H]2C[C@@H](OC(=O)N3Cc4cccc(F)c4C3)CN2C1=O` ?
Reply text: 10.1

Inquiry: So what does the record say about parasite growth, % of control (lower = inhibition) for `Nc1ncnc2c1ncn2[C@@H]1O[C@@H](CO)[C@H](O)[C@H]1O` ?
Reply text: 114

====

experimentNotes: qHTS of pediatric cancer cell lines to identify multiple opportunities for drug repurposing: Primary screen for Saos-2 cells (AID 1347097); further: nearly all actives have a fitted effect of over 40% in size
experimentalContext: Saos-2 viability, CellTiter-Glo ATP luminescence, 48 h; series mostly up to 46 µM
Results filed as inconclusive are left out. Calls of active or inactive are those of the source. The call rests on the fitted dose curve; in most records, active means well fitted cell-killing curve with a large enough effect; inconclusive means small, poorly fitted or top-dose-only effect; inactive means no such curve, though single readings can be large or run the other way.
Outcome (select one): active, inactive

The examples below pair each entry with its known result.
OC[C@H]1O[C@@H](n2cnc3c2NC=NC[C@@H]3O)C[C@H]1O ... inactive
CC(=O)c1ccc(S(=O)(=O)NC(=O)NC2CCCCC2)cc1 ... inactive
CN(C)C1CCN(C(=O)c2ccc(NC(=O)Nc3nc(N4CCOCC4)nc(N4CCOCC4)n3)cc2)CC1 ... active
CNC1CCC(N(Cc2cccc(-c3ccncc3)c2)C(=O)c2sc3c(F)ccc(F)c3c2Cl)CC1 (stereo not drawn) ... active
CO[C@H]1C[C@@H]2CC[C@@H](C)[C@@](O)(O2)C(=O)C(=O)N2CCCC[C@@H]2C(=O)O[C@H]([C@@H](C)C[C@@H]2CC[C@H](O)[C@H](OC)C2)CC(=O)[C@H](C)C=C(C)[C@@H](O)[C@@H](OC)C(=O)[C@H](C)C[C@H](C)C=CC=CC=C1C ... inactive
COc1ccc(-c2nc(N3CCOCC3)c3sc(CN(C)c4ncc(C(=O)NO)cn4)cc3n2)cn1 ... active
CCN(CC)CCOC(=O)c1ccc(N)cc1 ... inactive

# evaluate next
Inquiry: Given `Nc1ncnc2c1nc(Cl)n2[C@@H]1O[C@H](CO)[C@@H](O)[C@@H]1O` , state the outcome it received in this test.
Reply text: inactive

====

experimentNotes: Quantitative High-Throughput drug screen in 47 multiple myeloma cell lines against the NCATS MIPE library collection: MOLP8_DSMZ cell viability assay (AID 1918977); further: nearly all actives have a fitted effect of over 45% in size
experimentalContext: MOLP8 myeloma viability, CellTiter-Glo ATP luminescence, 48 h; series mostly up to 45.8 µM
Records with an inconclusive call do not appear. Calls of active or inactive are those of the source. Calls come from the whole dose curve; as a rule, active = well fitted cell-killing curve with a large enough effect; inconclusive = small, poorly fitted or top-dose-only effect, or effect the other way; inactive = no such curve, though single readings can be large or run the other way.
Outcome (select one): active, inactive

Inquiry: Given `O=C(Nc1ccccc1-c1cn2c(CN3CCNCC3)csc2n1)c1cnc2ccccc2n1` , state the outcome it received in this test.
Reply text: active

Inquiry: Given `O=C(O)c1ccc(-c2cc3cccnc3c(-c3ccc4nonc4c3)n2)cc1` , state the outcome it received in this test.
Reply text: active

Inquiry: Given `Cc1ccc(F)c(NC(=O)Nc2ccc(-c3cccc4[nH]nc(N)c34)cc2)c1` , state the outcome it received in this test.
Reply text: active

Inquiry: Given `NS(=O)(=O)c1cccc2c1C(=O)c1cccc(O)c1C2=O` , state the outcome it received in this test.
Reply text: active

Inquiry: Given `OC[C@H]1O[C@@H](Oc2cc(O)cc(C=Cc3ccc(O)cc3)c2)[C@H](O)[C@@H](O)[C@H]1O` , state the outcome it received in this test.
Reply text: inactive

Inquiry: Given Clc1ccc(C(c2ccc(Cl)cc2)n2cc[n+](CC(OCc3ccc(Cl)cc3Cl)c3ccc(Cl)cc3Cl)c2)cc1 (stereo unspecified) , state the outcome it received in this test.
Reply text: active

====

# viability per record follows
experimentNotes: Quantitative High-Throughput drug screen in 47 multiple myeloma cell lines against the NCATS MIPE library collection: SKMM1_PLB cell viability assay (AID 1919863); further: nearly all actives have a fitted effect of over 35% in size
experimentalContext: SKMM1 myeloma viability, CellTiter-Glo ATP, 48 h; stronger effect = lower value
Excerpt: PI: Beverly A. Mock Ph.D. Laboratory of Cancer Biology and Genetics, Center for Cancer Research, National Cancer Institute, National Institute of Health, Bethesda, Maryland […] 5; Detector; 425V; Luminescence; Viewlux PerkinElmer. […] 1. […] Briefly, the corresponding myeloma cell lines were screened in 1,536-well plates with 500 cells, 5-uL per well for inhibition of cell viability (assessed by measuring ATP levels with CellTiterGlo). […]
Inconclusive results are not listed.
Give the value, in units of %, as a plain number.

Worked examples, 10 compounds total:
COC[C@@H](c1ccc(C(F)(F)F)cc1)N1CCN(C2(C)CCN(C(=O)c3c(C)ncnc3C)CC2)C[C@H]1C ... 118
NC1=N[C@@]2(c3cc(NC(=O)c4ccc(F)cn4)ccc3F)COC[C@@H]2CS1 ... 111
OC[C@H]1O[C@@H](n2cnc3c2NC=NC[C@@H]3O)C[C@H]1O ... 110
CCOC(CN1C(=O)[C@](CC(=O)Nc2ccc(C)cc2)(NC(=O)Nc2ccc(C)cc2)c2ccccc21)OCC ... 93.3
CC(C)(C)OC(=O)N[C@H]1CCCCCC=C[C@@H]2C[C@@]2(C(=O)NS(=O)(=O)C2CC2)NC(=O)[C@@H]2C[C@@H](OC(=O)N3Cc4cccc(F)c4C3)CN2C1=O ... 123
CC(C)(C(=O)NCC(F)(F)C(F)(F)F)C(=O)N[C@@H]1C(=O)Nc2ccccc2-c2ccccc21 ... 128
CCn1c(C(=O)N(C2CC2)C2CC2)cc2c3c(ncn3C)c(Nc3cc(C)n(C)n3)nc21 ... 128
CO[C@H]1C[C@@H]2CC[C@@H](C)[C@@](O)(O2)C(=O)C(=O)N2CCCC[C@@H]2C(=O)O[C@H]([C@H](C)C[C@@H]2CC[C@H](OP(C)(C)=O)[C@H](OC)C2)CC(=O)[C@H](C)C=C(C)[C@@H](O)[C@@H](OC)C(=O)[C@H](C)C[C@H](C)C=CC=CC=C1C ... 83.3
O=C(CCc1ccc(O)cc1)c1c(O)cc(O)cc1O[C@@H]1O[C@H](CO)[C@H](O)[C@H](O)[C@H]1O ... 101
Oc1ccc(C2CCN(c3ccnc4ccccc34)CC2)cc1O ... 103

Inquiry: So what does the record say about viability for `CO[C@H]1C[C@@H]2CC[C@@H](C)[C@@](O)(O2)C(=O)C(=O)N2CCCC[C@@H]2C(=O)O[C@H]([C@H](C)C[C@@H]2CC[C@H](OCCO)[C@H](OC)C2)CC(=O)[C@H](C)C=C(C)[C@@H](O)[C@@H](OC)C(=O)[C@H](C)C[C@H](C)C=CC=CC=C1C` ?
Reply text: 66.8

Inquiry: So what does the record say about viability for `O=c1cc(-c2ccccc2)oc2cc(O)cc(O)c12` ?
Reply text: 139
